System: scrambled DNA
experiment: Direct DNA-binding assay (SPR), scrambled DNA
stated-conditions: biotinylated double-strand DNA on streptavidin chip
*1 amine or outer side, *2 acyl side, *3 side chain or, on linkers, in order; H or OH if unused. Where a SMILES comes first, the peptide text is derived from it. Bridges are numbered along the chain shown (N, C = ends). Roman numbers before positions name the chains, in order. [ ]: non-standard residue; d: D form. Actinocin(9to1) = Cc1c2oc3c(C)ccc(C(=O)[*:1])c3nc-2c(C(=O)[*:2])c(N)c1=O; NMeV = CN[C@H](C(=O)O)C(C)C; Sar = CNCC(=O)O
measurement-type: binding to scrambled DNA (SPR)

1) N=C(N)c1ccc(-c2cc3ccc(C(=N)N)cc3[nH]2)cc1 [DAPI, 4′,6-diamidino-2-phenylindole]    bind to DNA
2) CC[n+]1c(-c2ccccc2)c2cc(N)ccc2c2ccc(N)cc21 [ethidium bromide]    bind to DNA
3) Cc1c2oc3c(C)ccc(C(=O)N[C@@H]4C(=O)N[C@H](C(C)C)C(=O)N5CCC[C@H]5C(=O)N(C)CC(=O)N(C)[C@@H](C(C)C)C(=O)O[C@@H]4C)c3nc-2c(C(=O)N[C@@H]2C(=O)N[C@H](C(C)C)C(=O)N3CCC[C@H]3C(=O)N(C)CC(=O)N(C)[C@@H](C(C)C)C(=O)O[C@@H]2C)c(N)c1=O [actinomycin D] (I: T[dV]P[Sar][NMeV] / II: T[dV]P[Sar][NMeV]; ester I:1-I:C, II:1-II:C; linker I:N-II:N via Actinocin(9to1))    bind to DNA

* * *

Tested on: HEK293
experiment: Cytotoxicity assay (Alamar blue), HEK293
Assay type: cell-based
stated-conditions: HEK293, 24 h
Listed here: items and their measured CC50.
Please reply with the bare figure in µM and do not write the unit itself.

Solved cases below.
1) O=C(O)c1c(O)cc(Cl)cc1CCc1ccc2ccccc2c1    33.4
2) CCN(CC)C(=O)c1c(O)cc(O)cc1CCc1ccc2ccccc2c1    23.5

Give the observed CC50 of COc1cc(O)c(C(=O)O)c(C=Cc2ccc3ccccc3c2)c1 (mixture of isomers) for HEK293.
65.1

// fetch CC50 for O=C(O)c1c(O)cccc1C=Cc1ccc2ccccc2c1 (mixture of isomers) ; system: HEK293
97.1

* * *

experiment: Cytotoxicity assay (Alamar blue), HepG2
Assay type: cell-based
stated-conditions: human, HepG2 cells; HepG2, 24 h
measurement-type: CC50 at 24 h

Examples from the recorded data:
1) COc1cc(/C=C/c2ccccc2)cc(OC)c1OC [Sm38, (E)-1,2,3-trimethoxy-5-styrylbenzene]    > 100 µM
2) Cc1cc(O)c(C(=O)O)c(/C=C/c2ccc3ccccc3c2)c1    30.3 µM
3) COc1cc(CCc2ccc3ccccc3c2)cc(OC)c1OC    > 100 µM

Proceed to the following item.
For Oc1cc(CCc2ccccc2)cc(O)c1O , write its CC50 at 24 h.
> 100 µM

* * *

assay-target: SOX18[109] HMG fragment (Mus musculus (Mouse), UniProt P43680)
Sequence (P43680 69-177): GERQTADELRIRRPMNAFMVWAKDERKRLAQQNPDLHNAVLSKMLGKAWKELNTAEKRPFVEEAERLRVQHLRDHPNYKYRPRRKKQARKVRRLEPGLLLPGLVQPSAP
experiment: FP DNA-binding competition assay, SOX18[109] HMG fragment
stated-conditions: 50 μM, SOX18/DNA binding
Excerpt: Mouse SOX HMG fragments. The HMG domains of mouse SOX2 (Group B), SOX11 (Group C), SOX6 (Group D), SOX9 (Group E), SOX18 (Group F) and SOX15 (Group G) were BP cloned from cDNA templates (IMAGE cDNA clone IDs: Sox18: 3967084; Sox9: 5354229; Sox4: 6822618) into a pDONRTM221 pENTRY vector, sequenced and recombined into a pETG20A or a pHisMBP expression plasmid using Gateway®LR Technology (Ng et al., 2012). […]
Label scheme for FP bound fraction (%) 50 μM: lower than 80% is not satisfied, 80% and above is satisfied.

These recorded examples may help you get a feel for the data.
1. O=C(O)c1c(O)cc(Cl)cc1CCc1ccc2ccccc2c1 [Sm33]    not satisfied
2. CCN(CC)C(=O)c1c(O)cc(O)cc1CCc1ccc2ccccc2c1 [Sm26]    satisfied
3. COc1cccc(C=Cc2ccc3ccccc3c2)c1C(=O)O (mixture of isomers) [Sm19]    satisfied
4. O=C(O)c1c(O)cccc1C=Cc1ccc2ccccc2c1 (mixture of isomers) [Sm20]    not satisfied

# ---- query compound ----
Check this compound for FP bound fraction (%) 50 μM at or above 80%: COc1cc(O)c(C(=O)O)c(C=Cc2ccc3ccccc3c2)c1 (mixture of isomers) [Sm28]
not satisfied

* * *

Below: a set of entries, each annotated with reported pIC50.
assay-target: full-length mouse SOX18 (Mus musculus (Mouse), UniProt P43680)
Sequence (P43680 whole entry): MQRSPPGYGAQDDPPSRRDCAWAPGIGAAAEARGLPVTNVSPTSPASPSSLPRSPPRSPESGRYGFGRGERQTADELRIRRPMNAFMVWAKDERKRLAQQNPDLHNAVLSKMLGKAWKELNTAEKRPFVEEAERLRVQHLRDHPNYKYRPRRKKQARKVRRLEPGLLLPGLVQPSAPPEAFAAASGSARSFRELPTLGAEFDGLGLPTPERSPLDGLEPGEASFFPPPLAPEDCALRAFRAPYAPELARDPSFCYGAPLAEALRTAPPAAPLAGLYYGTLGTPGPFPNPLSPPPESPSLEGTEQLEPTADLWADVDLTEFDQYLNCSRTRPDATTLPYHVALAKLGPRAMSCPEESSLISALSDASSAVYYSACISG
Please express pIC50 as -log10 of the molar concentration.

1. Cc1ccc(Cl)c(Nc2ccccc2C(=O)O)c1Cl [Meclofenamic acid, reference compound]    3.79

Read off the recorded pIC50 for O=C(O)c1cccnc1Nc1cccc(C(F)(F)F)c1 [Nifumic acid, niflumic acid, reference compound]
3.43

# return recorded pIC50 for input O=C(O)c1ccccc1Nc1cccc(C(F)(F)F)c1 [Flufenamic acid, reference compound]
3.66

* * *

Tested on: HepG2
experiment: Cytotoxicity assay (Alamar blue), HepG2
Assay type: cell-based
stated-conditions: HepG2, 24 h
measurement-type: CC50 (µM)
Hi! Could you send only the number? It should be in µM, unit omitted.

Examples with their reported CC50 follow.
1) COc1cc(O)c(C(=O)O)c(C=Cc2ccc3ccccc3c2)c1 (mixture of isomers)    78.9
2) O=C(O)c1c(O)cc(Cl)cc1CCc1ccc2ccccc2c1    34.5
3) CCN(CC)C(=O)c1c(O)cc(O)cc1CCc1ccc2ccccc2c1    16.8

Write down CC50 measured for item O=C(O)c1c(O)cccc1C=Cc1ccc2ccccc2c1 (mixture of isomers)
71.3

* * *

assay-target: SOX18[109] HMG fragment (Mus musculus (Mouse), UniProt P43680)
experiment: FP DNA-binding competition assay, SOX18[109] HMG fragment
stated-conditions: 200 μM, SOX18/DNA binding; read-out: FP bound fraction (%) 200 μM
measurement-type: remaining activity at 200 µM
A complete answer gives the number and then names the unit.

Give remaining activity at 200 µM for the following compound: Oc1cc(CCc2ccc3ccccc3c2)cc(O)c1O [Sm44]
53.5%

Assign remaining activity at 200 µM to the following record: Cc1cc(O)c(C(=O)O)c(CCc2ccc3ccccc3c2)c1 [Sm36]
-3.9%

* * *

assay-target: SOX18[109] HMG fragment (Mus musculus (Mouse))
experiment: FP DNA-binding competition assay, SOX18[109] HMG fragment
stated-conditions: 50 μM, SOX18/DNA binding; read-out: FP bound fraction (%) 50 μM
Below, each entry is listed alongside its reported remaining activity at 50 µM.
Give the number; % is assumed, so skip it.

1) COc1cc(Cl)cc(/C=C/c2ccc3ccccc3c2)c1C(=O)O    97.7
2) COc1cc(O)c(C(=O)O)c(CCc2ccc3ccccc3c2)c1    73
3) CCN(CC)C(=O)c1c(/C=C\c2ccc3ccccc3c2)cccc1OC    103
4) Oc1cc(CCc2ccccc2)cc(O)c1O    101
5) Cc1cc(O)c(C(=O)O)c(CCc2ccc3ccccc3c2)c1    10.9
6) COc1cc(/C=C\c2ccc3ccccc3c2)cc(OC)c1OC    100
7) COc1cc(/C=C/c2ccc3ccccc3c2)c(C(=O)O)c(OC)c1    97
8) Cc1cc(O)c(C(=O)O)c(/C=C/c2ccc3ccccc3c2)c1    -1.5
9) COc1cc(CCc2ccc3ccccc3c2)cc(OC)c1OC    106
10) CCN(CC)C(=O)c1c(O)cccc1CCc1ccc2ccccc2c1    98.7

In one line, give reported remaining activity at 50 µM of the entry COc1cc(/C=C/c2ccccc2)cc(OC)c1OC [Sm38, (E)-1,2,3-trimethoxy-5-styrylbenzene] .
102

Consider the compound O=C(O)c1c(O)cccc1CCc1ccccc1 [Sm22, 2-hydroxy-6-phenethylbenzoic acid] . State its measured remaining activity at 50 µM.
98.1

Let me know recorded remaining activity at 50 µM for COc1cc(C)cc(/C=C/c2ccc3ccccc3c2)c1C(=O)O , thanks.
94.2

Assign remaining activity at 50 µM to the following record: Oc1cc(CCc2ccc3ccccc3c2)cc(O)c1O
108

Let me know recorded remaining activity at 50 µM for O=C(O)c1c(O)cc(Cl)cc1/C=C/c1ccc2ccccc2c1 , thanks.
3.9

Identify measured remaining activity at 50 µM associated with O=C(O)c1c(O)cccc1/C=C/c1ccccc1 [Sm21, (E)-2-hydroxy-6-styrylbenzoic acid]
103

Determine its reported remaining activity at 50 µM: CCN(CC)C(=O)c1c(/C=C/c2ccc3ccccc3c2)cccc1OC
99.3

Consider the compound COc1cc(CCc2ccccc2)cc(OC)c1OC . State its measured remaining activity at 50 µM.
102

Return value of remaining activity at 50 µM for input COc1cc(/C=C\c2ccccc2)cc(OC)c1OC [Sm37, (Z)-1,2,3-trimethoxy-5-styrylbenzene] , no commentary.
98.2

Tell me remaining activity at 50 µM reported for COc1cc(CCc2ccc3ccccc3c2)c(C(=O)O)c(OC)c1
99
